Entries and their IC50 values follow.
# EXPERIMENTAL TARGET: human CTPS1 (Homo sapiens, UniProt P17812)
# Construct: purchased Proteros biostructures GmbH
# Sequence (P17812 whole entry): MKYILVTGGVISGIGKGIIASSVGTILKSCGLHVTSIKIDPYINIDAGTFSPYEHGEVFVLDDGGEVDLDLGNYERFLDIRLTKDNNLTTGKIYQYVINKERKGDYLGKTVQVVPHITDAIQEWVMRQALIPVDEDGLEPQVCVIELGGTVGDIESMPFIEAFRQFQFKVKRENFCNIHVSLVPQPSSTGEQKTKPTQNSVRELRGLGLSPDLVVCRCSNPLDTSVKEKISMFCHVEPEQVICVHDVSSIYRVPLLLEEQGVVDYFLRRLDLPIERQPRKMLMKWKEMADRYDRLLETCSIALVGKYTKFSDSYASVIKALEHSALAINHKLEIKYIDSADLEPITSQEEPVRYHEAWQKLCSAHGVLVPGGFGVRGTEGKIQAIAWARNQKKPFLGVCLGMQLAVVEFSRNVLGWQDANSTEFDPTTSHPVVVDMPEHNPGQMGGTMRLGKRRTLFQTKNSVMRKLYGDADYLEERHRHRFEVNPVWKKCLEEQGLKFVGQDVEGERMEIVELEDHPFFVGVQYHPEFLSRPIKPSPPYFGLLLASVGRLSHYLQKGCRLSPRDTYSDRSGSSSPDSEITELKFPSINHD
# ASSAY REMARKS: Human CTPS1 enzyme inhibition (ADP-Glo Max assay)
# Assay type: biochemical
# TEST CONDITIONS: Table 23; ADP-Glo Max assay; read-out: CTPS1 (Human CTPS1 Enzyme Inhibition data grouped by potency range, IC50)

CC(C)Oc1cncc(-c2ccc(NC(=O)C(C)(C)c3ccnc(NS(=O)(=O)C4CC4)n3)cc2)c1 [Example P58]; 100 to 1000 nM

IN: Look up and report measured IC50 (human CTPS1 (Homo sapiens, UniProt P17812)) for the following compound: O=C(Cc1cncc(NS(=O)(=O)C2CC2)n1)Nc1ccc(-c2cccnc2)cc1 [Example P192]
OUT: 1000 to 10000 nM

IN: Write down the reported IC50 (system: human CTPS1 (Homo sapiens, UniProt P17812)) of CC(C)(C(=O)Nc1ccc(-c2cncc(C(F)(F)F)n2)cn1)c1ccnc(NS(=O)(=O)C2CC2)n1 [Example P30]
OUT: ≤ 100 nM

IN: Report value only: IC50, human CTPS1 (Homo sapiens, UniProt P17812), CCC(F)(C(=O)Nc1ccc(-c2cncc(C3CC3)n2)cn1)c1ccnc(NS(=O)(=O)C2CC2)n1 (stereo not shown) [Example P150]
OUT: ≤ 100 nM

IN: Give measured IC50 for CCOc1cncc(-c2ccc(NC(=O)C3(c4cncc(NS(=O)(=O)C5CC5)n4)CCOCC3)nc2)n1 [Example P197] (human CTPS1 (Homo sapiens, UniProt P17812)).
OUT: ≤ 100 nM

IN: Give IC50 only, for CC(C)(C(=O)Nc1ccc(-c2cccnc2)cc1)c1cccc(NS(=O)(=O)C2CC2)n1 [Example P179] , using human CTPS1 (Homo sapiens, UniProt P17812) data.
OUT: 1000 to 10000 nM

IN: State the measured IC50 (human CTPS1 (Homo sapiens, UniProt P17812)) of CCOc1cncc(-c2ccc(NC(=O)C(C)(C)c3nc(NS(=O)(=O)C4CC4)ncc3F)cc2)n1 [Example P68]
OUT: 100 to 1000 nM

* * *

# EXPERIMENTAL TARGET: human CTPS1 (Homo sapiens, UniProt P17812)
# Construct: purchased Proteros biostructures GmbH
# ASSAY REMARKS: Human CTPS1 enzyme inhibition (ADP-Glo Max assay)
# Assay type: biochemical
# TEST CONDITIONS: Table 23; ADP-Glo Max assay; read-out: CTPS1 (Human CTPS1 Enzyme Inhibition data grouped by potency range, IC50)
Items are presented alongside their recorded IC50.

The following compounds have reported results that may help.
CCOc1cncc(-c2ccc(NC(=O)C3(c4ccnc(NS(=O)(=O)C5CC5)n4)CCCC3)cc2)n1 [Example P2]; ≤ 100 nM
CCOc1cncc(-c2ccc(NC(=O)C(F)(CC)c3ccnc(NS(C)(=O)=O)n3)nc2)n1 (single isomer, unassigned) [Example P165]; ≤ 100 nM
CC(C)Oc1cncc(-c2ccc(NC(=O)Cc3ccnc(NS(=O)(=O)C4CC4)n3)cc2)n1; ≤ 100 nM
CCOc1cncc(-c2cc(F)c(NC(=O)C(C)(C)c3ccnc(NS(=O)(=O)C4CC4)n3)c(F)c2)n1; ≤ 100 nM
CCOc1cncc(-c2ccc(NC(=O)C(C)(C)c3ccnc(NS(=O)(=O)C4CC4)n3)c(C)c2C)n1; 100 to 1000 nM

IN: Hello, please tell me recorded IC50 for this one: `O=C(Cc1ccnc(NS(=O)(=O)C2CC2)n1)Nc1ccc(-c2cncc(C(F)(F)F)c2)cc1`
OUT: 100 to 1000 nM

IN: Fill in reported IC50 for this entry: `CCOc1cncc(-c2ccc(NC(=O)C(C)(C)c3ccnc(NS(C)(=O)=O)n3)nc2)n1`
OUT: 100 to 1000 nM

IN: Provide one value: measured IC50 of `CCOc1cncc(-c2ccc(NC(=O)C(C)(C)c3cc(C(F)(F)F)nc(NS(=O)(=O)C4CC4)n3)c(F)c2)n1`
OUT: 100 to 1000 nM

IN: Answer with reported IC50 of `O=C(Cc1ccnc(NS(=O)(=O)C2CC2)n1)Nc1ccc(-c2cccnc2)cc1`
OUT: 100 to 1000 nM

IN: For `O=C(Cc1ccnc(NS(=O)(=O)C2CC2)n1)Nc1ccc(-c2cncc(OCC(F)(F)F)c2)cc1` , write its IC50.
OUT: 100 to 1000 nM

IN: Give the reported IC50 for this compound. `CCOc1cncc(-c2ccc(C(=O)NC3(c4ccnc(NS(=O)(=O)C5CC5)n4)CC3)c(F)c2)n1`
OUT: 100 to 1000 nM

IN: Return reported IC50. Input compound: `O=C(Cc1nc(NS(=O)(=O)C2CC2)ncc1F)Nc1ccc(-c2cccnc2)cc1`
OUT: 1000 to 10000 nM

IN: Specify reported IC50 for the compound shown: `CCOc1cncc(-c2ccc(NC(=O)C(C)(C)c3ccnc(NS(=O)(=O)C4CC4)n3)c(C#N)c2)n1`
OUT: ≤ 100 nM

IN: Find the measured IC50 of `CCOc1cncc(-c2ccc(NC(=O)C(C)(C)c3cc(C)nc(NS(=O)(=O)C4CC4)n3)nc2)n1` and report it.
OUT: 100 to 1000 nM

IN: Given the compound `CC(C)(C(=O)Nc1ccc(-c2cncc(Cl)c2)cc1)c1cccc(NS(=O)(=O)C2CC2)n1` , write its reported IC50.
OUT: 1000 to 10000 nM

* * *

# EXPERIMENTAL TARGET: human CTPS1 (Homo sapiens, UniProt P17812)
# Construct: purchased Proteros biostructures GmbH
# ASSAY REMARKS: Human CTPS1 enzyme inhibition (ADP-Glo Max assay)
# Assay type: biochemical
# TEST CONDITIONS: Table 23; ADP-Glo Max assay; read-out: CTPS1 (Human CTPS1 Enzyme Inhibition data grouped by potency range, IC50)
pIC50: −log10 of the molar value.
The reader will find reported pIC50 values listed item by item below.

IN: Tell me pIC50 of CCOc1cncc(-c2ccc(NC(=O)C(c3ccnc(NS(=O)(=O)C4CC4)n3)C(C)C)c(F)c2)n1 (stereo not drawn) when tested on human CTPS1 (Homo sapiens, UniProt P17812).
OUT: ≥ 7.00

IN: Please look at `CC(C)Oc1cncc(-c2ccc(NC(=O)Cc3ccnc(NS(=O)(=O)C4CC4)n3)c(F)c2)n1` and tell me its recorded pIC50 on human CTPS1 (Homo sapiens, UniProt P17812).
OUT: ≥ 7.00

IN: Enter measured pIC50, system human CTPS1 (Homo sapiens, UniProt P17812), for the molecule shown: `CCOc1cncc(-c2ccc(NC(=O)C(C)(C)c3ccnc(NS(=O)(=O)C4CCC4)n3)nc2)n1`
OUT: 6.00 to 7.00

* * *

# EXPERIMENTAL TARGET: human CTPS1 (Homo sapiens)
# Construct: purchased Proteros biostructures GmbH
# ASSAY REMARKS: Human CTPS1 enzyme inhibition (ADP-Glo Max assay)
# Type: biochemical
# TEST CONDITIONS: Table 23; ADP-Glo Max assay; read-out: CTPS1 (Human CTPS1 Enzyme Inhibition data grouped by potency range, IC50)
pIC50: −log10 of the molar value.
MEASURE: pIC50

Below, each entry is followed by its recorded pIC50 result.
CC(C)(C(=O)Nc1ccc(-c2cnccn2)cc1)c1ccnc(NS(=O)(=O)C2CC2)n1; 5.00 to 6.00
CCOc1cncc(-c2ccc(NC(=O)C(F)(c3ccnc(NS(=O)(=O)C4CC4)n3)C(C)C)nc2)n1 (stereo not drawn); ≥ 7.00
CC(C)c1cncc(-c2ccc(NC(=O)C(C)(C)c3ccnc(NS(=O)(=O)C4CC4)n3)nc2)n1; 6.00 to 7.00
CC(C)(C(=O)Nc1ccc(-c2cncc(C(F)(F)F)n2)cc1)c1ccnc(NS(C)(=O)=O)n1; 6.00 to 7.00
O=C(Cc1ccnc(NS(=O)(=O)C2CC2)n1)Nc1ccc(-c2cncc(OCC(F)(F)F)n2)cc1; ≥ 7.00
CCOc1cncc(-c2ccc(NC(=O)C(CC)c3ccnc(NS(=O)(=O)C4CC4)n3)c(C)c2)n1 (stereo not drawn); ≥ 7.00

IN: Provide pIC50, tested on human CTPS1 (Homo sapiens), for `CC(C)(C(=O)Nc1ccc(-c2cncc(OC(F)F)c2)cc1)c1ccnc(NS(=O)(=O)C2CC2)n1` .
OUT: ≥ 7.00

IN: Please respond with reported pIC50 (system human CTPS1 (Homo sapiens)) for `CCOc1cncc(-c2ccc(NC(=O)Cc3ccnc(NS(=O)(=O)C4CC4)n3)cc2)n1` .
OUT: ≥ 7.00

IN: Answer briefly: pIC50 recorded on human CTPS1 (Homo sapiens) for `CCOc1cncc(-c2ccc(NC(=O)C(C)(C)c3cccc(NS(=O)(=O)C4CC4)n3)cc2)n1`
OUT: 6.00 to 7.00

IN: Look up human CTPS1 (Homo sapiens) data: pIC50 of `CC(C)Oc1cncc(-c2ccc(NC(=O)C(C)(C)c3ccnc(NS(C)(=O)=O)n3)c(F)c2)c1` , then report it.
OUT: 5.00 to 6.00

IN: For human CTPS1 (Homo sapiens), give the measured pIC50 of the entry `C=C(C)c1cncc(-c2ccc(NC(=O)C(C)(C)c3ccnc(NS(=O)(=O)C4CC4)n3)nc2)n1`
OUT: 6.00 to 7.00

IN: For human CTPS1 (Homo sapiens), give the measured pIC50 of the entry `CC(C)Oc1cncc(-c2ccc(NC(=O)C(C)(C)c3ccnc(NS(=O)(=O)C4CC4)n3)cc2)n1`
OUT: ≥ 7.00

IN: Output reported pIC50 of the compound `CCOc1cncc(-c2ccc(NC(=O)C(C)(C)c3cc(C)nc(NS(=O)(=O)C4CC4)n3)cc2)n1` on human CTPS1 (Homo sapiens).
OUT: 6.00 to 7.00

IN: Please respond with reported pIC50 (system human CTPS1 (Homo sapiens)) for `C=C(C)c1cncc(-c2ccc(NC(=O)C(C)(C)c3ccnc(NS(=O)(=O)C4CC4)n3)cc2)n1` .
OUT: 6.00 to 7.00

IN: Output reported pIC50 of the compound `CCOc1cncc(-c2ccc(NC(=O)C(C)(C)c3cccc(NS(=O)(=O)C4CC4)n3)cc2)c1` on human CTPS1 (Homo sapiens).
OUT: 5.00 to 6.00

IN: With human CTPS1 (Homo sapiens) as the test system, provide measured pIC50 for this compound: CCC(F)(C(=O)Nc1ccc(-c2cncc(Cl)c2)cn1)c1ccnc(NS(=O)(=O)C2CC2)n1 (stereo not drawn)
OUT: ≥ 7.00

IN: Given `CC(C)(C(=O)Nc1ccc(-c2cncc(C(F)(F)F)n2)cc1F)c1ccnc(NS(=O)(=O)C2CC2)n1` , report its pIC50 on human CTPS1 (Homo sapiens).
OUT: ≥ 7.00

IN: Tell me its pIC50 on human CTPS1 (Homo sapiens): `CC(C)(C(=O)Nc1ccc(-c2cccnc2)cc1F)c1ccnc(NS(=O)(=O)C2CC2)n1`
OUT: 5.00 to 6.00

IN: GET pIC50 | system: human CTPS1 (Homo sapiens) | item: `O=C(Cc1ccnc(NS(=O)(=O)C2CC2)n1)Nc1ccc(-c2cncc(C(F)(F)F)n2)cc1F`
OUT: ≥ 7.00

IN: // fetch pIC50; item: `COc1cncc(-c2ccc(NC(=O)Cc3ccnc(NS(=O)(=O)C4CC4)n3)cc2)n1` ; system: human CTPS1 (Homo sapiens)
OUT: ≥ 7.00

IN: With human CTPS1 (Homo sapiens) as the test system, provide measured pIC50 for this compound: `O=C(Cc1cccc(NS(=O)(=O)C2CC2)n1)Nc1ccc(-c2cncc(F)c2)cc1`
OUT: 6.00 to 7.00

IN: Give pIC50 for `CC(C)(C(=O)Nc1ccc(-c2cncc(Cl)n2)cc1)c1cccc(NS(=O)(=O)C2CC2)n1` tested on human CTPS1 (Homo sapiens).
OUT: 6.00 to 7.00

IN: Fetch value of pIC50 on human CTPS1 (Homo sapiens) for `CCOc1cncc(-c2ccc(NC(=O)C(C)(C)c3ccnc(NS(=O)(=O)CC)n3)cc2)n1` .
OUT: 6.00 to 7.00

IN: Please report the measured pIC50 for `O=C(Cc1cccc(NS(=O)(=O)C2CC2)n1)Nc1ccc(-c2cccnc2)cc1` tested on human CTPS1 (Homo sapiens).
OUT: 5.00 to 6.00
